B1: HDV Ribozyme (parent)
chain: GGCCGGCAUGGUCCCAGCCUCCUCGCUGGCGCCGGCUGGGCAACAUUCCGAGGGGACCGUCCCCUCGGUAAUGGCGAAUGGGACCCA

variants of: B1; experiment: self-cleavage, relative activity (ratio to wild type); higher = more cleavage; co-transcriptional
Hi, to clarify the labels: fulfilled covers self-cleavage from 0.4 upward, not fulfilled covers anything below 0.4.

>  <MACROMOLECULE SEQUENCE>
GGCCGGCAUGGUCCCAGACUCCUCGCUGGCGCCGGCUGGGCAAGAUUCCGAGGGGACCGUCCCCUCGGUAAUGGCGAAUGGGACCCA [C18A C44G]

>  <ASSIGNED CATEGORY>
not fulfilled

$$$$
>  <MACROMOLECULE SEQUENCE>
GGCCCGUAUGGUCCCAGCCUCCUCGCUGGCGCCGGCUGGGCAACAUUCCGAGGGGACCGUCCCCUCGGUAAUGGCGAAUGGGACCCA [G5C C7U]

>  <ASSIGNED CATEGORY>
not fulfilled

$$$$
>  <MACROMOLECULE SEQUENCE>
GGCCGGCAUGGUCCCAGCCUCCUCGCUGGCGCCGGCUGGGCAACAUUCCGAGGGGACCGUCGCCUCGGUAAUGGCGAAUGUGACCCA [C62G G81U]

>  <ASSIGNED CATEGORY>
not fulfilled

$$$$
>  <MACROMOLECULE SEQUENCE>
GGCCGGCAUGGUCCCGGUCUCCUCGCUGGCGCCGGCUGGGCAACAUUCCGAGGGGACCGUCCCCUCGGUAAUGGCGAAUGGGACCCA [A16G C18U]

>  <ASSIGNED CATEGORY>
fulfilled

$$$$
>  <MACROMOLECULE SEQUENCE>
GGCCGGCAUGGUCCCAGCCUCCUCGCUGGCGCCGGCUGGGCAACAUUCCGAGGGGACCGUCCCCUCGGUAAUGGCGAAUGGGAUCCC [C84U A87C]

>  <ASSIGNED CATEGORY>
fulfilled

$$$$
>  <MACROMOLECULE SEQUENCE>
GGCCGGCAUGGUCCCAGCCGCCUCGCUGGCGCCGGCUGGGCAACAUUCCGAGGGGACCGUCCCAUCGGUAAUGGCGAAUGGGACCCA [U20G C64A]

>  <ASSIGNED CATEGORY>
not fulfilled

$$$$
>  <MACROMOLECULE SEQUENCE>
GGGCGGCAUGGUCCCAGACUCCUCGCUGGCGCCGGCUGGGCAACAUUCCGAGGGGACCGUCCCCUCGGUAAUGGCGAAUGGGACCCA [C3G C18A]

>  <ASSIGNED CATEGORY>
not fulfilled

$$$$
>  <MACROMOLECULE SEQUENCE>
GGCCGGCAUGGUCCCACCCUCCUCGCUGGCGCCGGCUGAGCAACAUUCCGAGGGGACCGUCCCCUCGGUAAUGGCGAAUGGGACCCA [G17C G39A]

>  <ASSIGNED CATEGORY>
not fulfilled

$$$$
>  <MACROMOLECULE SEQUENCE>
GGCCGGCAUGGUCGCAGCCUCCUCGCUGGCGCCGGCUGGGCAACAUUCCGAGGGGACCGUCCCCUCGGUAAUGGCGGAUGGGACCCA [C14G A77G]

>  <ASSIGNED CATEGORY>
fulfilled

$$$$
>  <MACROMOLECULE SEQUENCE>
GGCCGGCAUGGUCCCAGCCUCCUCGCUGGCGCCGGCUGGGCAAGAUUCCGAGGGGACCGUGCCCUCGGUAAUGGCGAAUGGGACCCA [C44G C61G]

>  <ASSIGNED CATEGORY>
fulfilled

$$$$
>  <MACROMOLECULE SEQUENCE>
GGCCGGCAUGGUCCCAGCCUCCUCGCUGGCGCCGGCUGGGCAACAUUCGGAGGGGACCCUCCCCUCGGUAAUGGCGAAUGGGACCCA [C49G G59C]

>  <ASSIGNED CATEGORY>
fulfilled

$$$$
>  <MACROMOLECULE SEQUENCE>
GGCCGGCAUGGUCCCAGCCUCCUUGCUGGCGCCGGCUGGGCAACAUUCCGAGGGGACCGUCCCAUCGGUAAUGGCGAAUGGGACCCA [C24U C64A]

>  <ASSIGNED CATEGORY>
fulfilled

$$$$
>  <MACROMOLECULE SEQUENCE>
GGCCGGCAUGGUCCCAGCCUCCUCGCUGGCGCCGGCUGGGCAACAUUCCGAGGGGACCGUCCCCUCGGUAAUGGCGAAUGGGUCCCU [A83U A87U]

>  <ASSIGNED CATEGORY>
fulfilled

$$$$
>  <MACROMOLECULE SEQUENCE>
GGCGGGCAUGGUCCCAGCCUCCUCGCUGGCGCCGGCUGGGCAACAUUCCGAGGGGACCGUCCCCUCGGUAAUGGCAAAUGGGACCCA [C4G G76A]

>  <ASSIGNED CATEGORY>
not fulfilled

$$$$
>  <MACROMOLECULE SEQUENCE>
GGCCGGCCUGGUCCCAGCCUCCUCGCUGGCGCCGGCUGGGCAACAUUCCGAGGGGACCGUCCCCUCGGUAAUGCCGAAUGGGACCCA [A8C G74C]

>  <ASSIGNED CATEGORY>
not fulfilled

$$$$
>  <MACROMOLECULE SEQUENCE>
GGCCGGCAUGGUCCCAGCCUCCUCGCUGGCGCCGGCUGGGCAACAAUCCUAGGGGACCGUCCCCUCGGUAAUGGCGAAUGGGACCCA [U46A G50U]

>  <ASSIGNED CATEGORY>
fulfilled

$$$$
>  <MACROMOLECULE SEQUENCE>
GGCCGGCAUGGUCCCAGCCUCCUCGCUGGCGCCGGCUUGGUAACAUUCCGAGGGGACCGUCCCCUCGGUAAUGGCGAAUGGGACCCA [G38U C41U]

>  <ASSIGNED CATEGORY>
fulfilled

$$$$
>  <MACROMOLECULE SEQUENCE>
GGCCGGCAUGGUCCCAGCCUCCCCGCUGGCGCCGGCUGGGCAACAUUCCGAGGGGACCGUCCCCUCGGUAAGGGCGAAUGGGACCCA [U23C U72G]

>  <ASSIGNED CATEGORY>
fulfilled

$$$$
>  <MACROMOLECULE SEQUENCE>
GGCCGGCAUGGUCCCAGCCUCCUAGCUGGCGCCGGCUGGGCAACAUUCCGAGGGGACCGUCCCCUCGGAAAUGGCGAAUGGGACCCA [C24A U69A]

>  <ASSIGNED CATEGORY>
fulfilled

$$$$
>  <MACROMOLECULE SEQUENCE>
GGCCGGCAUGGUCCCAGCCUCCUCGCUGGCGCCGACUGGGCAACAUUCCGAGGGGACCGUCCCCUCGCUAAUGGCGAAUGGGACCCA [G35A G68C]

>  <ASSIGNED CATEGORY>
fulfilled

$$$$
>  <MACROMOLECULE SEQUENCE>
GGCCGGCAUGGUCCCAUCCUCCUCGCUGGCGCCGGCUGGGCAACAUUCCGAGGGGACCGUCCCCUCGGGAAUGGCGAAUGGGACCCA [G17U U69G]

>  <ASSIGNED CATEGORY>
fulfilled

$$$$
